Target: hDHFR (Homo sapiens, UniProt P00374)
Sequence (P00374 1-187): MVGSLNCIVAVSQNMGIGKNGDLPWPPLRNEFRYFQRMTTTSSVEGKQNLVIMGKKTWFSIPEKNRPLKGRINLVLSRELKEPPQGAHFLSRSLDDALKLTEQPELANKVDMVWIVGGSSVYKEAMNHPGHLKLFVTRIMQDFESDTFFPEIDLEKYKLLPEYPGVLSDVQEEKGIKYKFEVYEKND
Format: biochemical
Conditions: Table 16; pIC50 = -log10 IC50; at least three replicates; read-out: hDHFR pIC50-DHFR primary assay (converted)
The following compounds are listed with their measured IC50 values.
parameter: IC50 (nM)

[[record]]
entrysmiles = "COc1ncccc1-c1cccc(N2CCN(c3cnc(N)nc3N)CC2)c1"
testedsystem = "hDHFR (Homo sapiens, UniProt P00374)"
parameter = "IC50"
readoutnumber = 1020

[[record]]
entrysmiles = "CCc1ncc(-c2cccc(N3CCN(c4cnc(N)nc4N)CC3)c2)cn1"
testedsystem = "hDHFR (Homo sapiens, UniProt P00374)"
parameter = "IC50"
readoutnumber = 1580

[[record]]
entrysmiles = "Nc1ncc(N2CCN(c3cccc(C4CCOCC4)c3)CC2)c(N)n1"
testedsystem = "hDHFR (Homo sapiens, UniProt P00374)"
parameter = "IC50"
readoutnumber = 6170

[[record]]
entrysmiles = "Nc1ncc(C2CCN(c3ccc(C(F)(F)F)nc3)CC2)c(N)n1"
testedsystem = "hDHFR (Homo sapiens, UniProt P00374)"
parameter = "IC50"
readoutnumber = 955

[[record]]
entrysmiles = "COc1ncc(-c2cc(N3CCN(c4cnc(N)nc4N)CC3)ccc2F)cn1"
testedsystem = "hDHFR (Homo sapiens, UniProt P00374)"
parameter = "IC50"
readoutnumber = 389

[[record]]
entrysmiles = "COc1ncc(-c2cccc(N3CCN(c4cnc(N)nc4N)CC3)n2)cn1"
testedsystem = "hDHFR (Homo sapiens, UniProt P00374)"
parameter = "IC50"
readoutnumber = 18.2

[[record]]
entrysmiles = "Nc1ncc(N2CCN(c3ccc(Cl)c(Cl)c3)CC2)c(N)n1"
testedsystem = "hDHFR (Homo sapiens, UniProt P00374)"
parameter = "IC50"
readoutnumber = 75.9

[[record]]
entrysmiles = "CCc1nc(N)nc(N)c1N1CCN(c2cccc(C)c2)CC1"
testedsystem = "hDHFR (Homo sapiens, UniProt P00374)"
parameter = "IC50"
readoutnumber = 417

[[record]]
entrysmiles = "Nc1ncc(N2CCN(c3cccc(-c4cnc(O)nc4)n3)CC2)c(N)n1"
testedsystem = "hDHFR (Homo sapiens, UniProt P00374)"
parameter = "IC50"
readoutnumber = 16.6

[[record]]
entrysmiles = "CCc1nc(N)nc(N)c1N1CCN(c2ccccc2)CC1"
testedsystem = "hDHFR (Homo sapiens, UniProt P00374)"
parameter = "IC50"
readoutnumber = 1350

